Attribution: ChEMBL document CHEMBL1152867

Test: Clearance in CD1 mouse at 20 mg/kg, po
Format: ADME, organism-based
Set-up: dose 20 mg/kg, route oral
Details: in vivo
QUANTITY_MEASURED: CL/F

O=S(=O)(Nc1ccccc1)c1ccc(NC(=S)Nc2ccccc2)cc1 = 2.34 mL/min

###

Experiment: Oral bioavailability in CD1 mouse at 20 mg/kg
Assay type: ADME, organism-based
Conditions: in vivo
QUANTITY_MEASURED: bioavailability (%)

O=S(=O)(Nc1ccccc1)c1ccc(NC(=S)Nc2ccccc2)cc1 = 69.3

###

Experiment: Cmax in CD1 mouse at 20 mg/kg, iv administered as bolus dose
Assay type: ADME, organism-based
Parameters: dose 20 mg/kg, route intravenous
Settings: in vivo
QUANTITY_MEASURED: Cmax (ng/mL)

O=S(=O)(Nc1ccccc1)c1ccc(NC(=S)Nc2ccccc2)cc1 = 4750
